- Test system: HT29 colon
- test-description: NCI tumour cell line growth inhibition, 48 h
For each entry below, report its TGI value.

Requested read-out: TGI. Entry: CCOc1ccc(NC(=O)C2=C(C)NC(C)=C(C(=O)Nc3ccc(OCC)cc3)C2c2ccc(O)c(OC)c2)cc1
> 100 µM

Lookup CC1=NNC(=O)C1C1CC(c2c[nH]c3ccccc23)=NNC1=S (stereo not given)
> 100 µM

CCN1/C(=C/C=C/c2n(-c3ccccc3)c3ccc(-c4nc5ccccc5s4)cc3[n+]2CC)N(c2ccccc2)c2ccc(-c3nc4ccccc4s3)cc21 , same question.
> 50 µM

Now consider O=c1c2c3c(sc2n2c(-c4cc(-c5ccccc5)no4)nnc2n1Cc1ccccc1)CCCC3 and answer again.
> 100 µM

Do the same for CC(C)c1nc2cc(C(F)(F)F)ccc2[nH]c1=O please
> 100 µM

Field entry: COC(=O)C(C)(C)OCc1ccc(C2NC(=O)N(c3cccc(Cl)c3)C(=O)N2c2cccc(Cl)c2)cc1 (stereo not given)
> 100 µM

Another compound to check: CC1=C(/C=C/C(=O)O)C(C)(C)CCC1
> 100 µM

Again, but for Cc1ccc(Cc2n[nH]c(=O)n2/N=C\CC/C=N\n2c(Cc3ccc(C)cc3)n[nH]c2=O)cc1
> 100 µM

Same question, N#CCCN(c1ccc(/C=C2\N=C(Cc3ccccc3)OC2=O)cc1)S(=O)(=O)c1ccccc1 this time
> 100 µM

Request: CC(=O)CCc1ccc(OC2OC(COC(=O)c3cc(O)c(O)c(O)c3)C(O)C(O)C2OC(=O)/C=C/c2ccccc2)cc1 (stereo not given)
82.2 µM

Same again, this time with COc1ccc2c(c1)CCN=C2Cc1cc(OC)c(OC)cc1CCCl
> 100 µM

Then this compound: CCOC(O)(NC(=O)C(C(F)(F)F)C(F)(F)F)C(F)(F)F (stereo not given)
> 100 µM

Next entry: CN(c1cc2ncc(=O)[nH]c2cc1NC(N)=NCc1ccc(Cl)cc1)C1CCCCC1
14.1 µM

What about CC(C)(C)n1c(=O)[nH]n(C2NN=Cc3cccc4cccc2c34)c1=O (stereo not given) ?
45.9 µM

Quick one: COC(c1cccc(C(O)(C(F)(F)F)C(F)(F)F)c1)(C(F)(F)F)C(F)(F)F
31.6 µM

Try this compound too: CC(C)(O)C#Cc1ccc(/C=C/C(=O)c2ccccc2)s1
29.9 µM

O=C(C=Nc1ccccc1C(=O)[O-])c1cccs1.O=C(C=Nc1ccccc1C(=O)[O-])c1cccs1.[Co+2] , same question.
> 100 µM

Cool, now O=c1[nH]c2ccc(Cl)cc2c2oc(-c3ccccc3)nc12
> 100 µM

What do you have for Nc1ccccc1-c1ccc([N+](=O)[O-])cc1 ?
> 100 µM

Proceed to Cn1cc(C2=C(c3cccc(N)c3)C(=O)NC2=O)c2ccccc21
> 25 µM
